SYSTEM: CXCR4 (Homo sapiens, UniProt P61073)
Construct: expressed in transfected cells
Sequence (P61073 whole entry): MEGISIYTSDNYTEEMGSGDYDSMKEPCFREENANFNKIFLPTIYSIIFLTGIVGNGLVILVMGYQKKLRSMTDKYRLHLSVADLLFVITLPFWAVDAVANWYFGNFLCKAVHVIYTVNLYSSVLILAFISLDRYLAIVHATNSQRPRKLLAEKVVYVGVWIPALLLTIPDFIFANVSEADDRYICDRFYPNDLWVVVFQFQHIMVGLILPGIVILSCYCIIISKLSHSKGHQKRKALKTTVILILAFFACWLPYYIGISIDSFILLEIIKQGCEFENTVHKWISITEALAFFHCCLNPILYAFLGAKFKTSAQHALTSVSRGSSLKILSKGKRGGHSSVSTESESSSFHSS
EXPERIMENT: Ca2+ assay: CXCR4 antagonizing activity of the peptides
Assay type: cell-based
MEASUREMENT_PARAMETERS: CXCR4 transfected pre-B cells, Fura-2 fluorescence, 37° C.
Where a SMILES comes first, the peptide text is derived from it. Bridges are numbered along the chain shown (N, C = ends). [ ]: non-standard residue; d: D form. 2Nal = N[C@@H](Cc1ccc2ccccc2c1)C(=O)O; Cit = NC(=O)NCCC[C@H](N)C(=O)O
Recorded IC50, one value per entry.
Report the figure in nM without appending any unit label.

>  <MOLECULE>
N=C(N)NCCC[C@@H](N)C(=O)N[C@@H](CCCNC(=N)N)C(=O)N[C@@H](Cc1ccc2ccccc2c1)C(=O)N[C@H]1CSSC[C@@H](C(=O)N[C@@H](CCCNC(=N)N)C(N)=O)NC(=O)[C@H](CCCNC(N)=O)NC(=O)[C@H](CCCNC(=N)N)NC(=O)[C@H](Cc2ccc(O)cc2)NC(=O)[C@@H]2CCCN2C(=O)[C@H]2CCCN2C(=O)[C@H](CCCCN)NC(=O)[C@H](CCCNC(N)=O)NC(=O)[C@H](Cc2ccc(O)cc2)NC1=O [Example 10] (H-[dR]R[2Nal]CY[Cit]K[dP]PYR[Cit]CR-NH2; disulfide 4-13)

>  <MEASURE_NAME>
IC50

>  <UNITS_SYMBOL>
nM

>  <DATA_VALUE>
21.5

$$$$

Kindly review the next molecule as well.
Report IC50 for N=C(N)NCCC[C@H](NC(=O)[C@@H]1CSSC[C@H](NC(=O)[C@H](Cc2ccc3ccccc3c2)NC(=O)[C@H](CCCNC(=N)N)NC(=O)[C@@H](N)CCCNC(=N)N)C(=O)N[C@@H](Cc2ccc(O)cc2)C(=O)N[C@@H](CCCNC(N)=O)C(=O)N[C@@H](CCCCN)C(=O)N2CCC[C@@H]2C(=O)N2CCC[C@H]2C(=O)N[C@@H](Cc2ccc(O)cc2)C(=O)N[C@@H](CCCNC(=N)N)C(=O)N[C@@H](CCCNC(N)=O)C(=O)N1)C(=O)O [Example 20] (H-RR[2Nal]CY[Cit]K[dP]PYR[Cit]CR-OH; disulfide 4-13) 15.5
